- EXPERIMENTAL SYSTEM: FGFR2^WT (Homo sapiens)
- Construct: expressed in transfected cells
- Sequence (P21802 22-821): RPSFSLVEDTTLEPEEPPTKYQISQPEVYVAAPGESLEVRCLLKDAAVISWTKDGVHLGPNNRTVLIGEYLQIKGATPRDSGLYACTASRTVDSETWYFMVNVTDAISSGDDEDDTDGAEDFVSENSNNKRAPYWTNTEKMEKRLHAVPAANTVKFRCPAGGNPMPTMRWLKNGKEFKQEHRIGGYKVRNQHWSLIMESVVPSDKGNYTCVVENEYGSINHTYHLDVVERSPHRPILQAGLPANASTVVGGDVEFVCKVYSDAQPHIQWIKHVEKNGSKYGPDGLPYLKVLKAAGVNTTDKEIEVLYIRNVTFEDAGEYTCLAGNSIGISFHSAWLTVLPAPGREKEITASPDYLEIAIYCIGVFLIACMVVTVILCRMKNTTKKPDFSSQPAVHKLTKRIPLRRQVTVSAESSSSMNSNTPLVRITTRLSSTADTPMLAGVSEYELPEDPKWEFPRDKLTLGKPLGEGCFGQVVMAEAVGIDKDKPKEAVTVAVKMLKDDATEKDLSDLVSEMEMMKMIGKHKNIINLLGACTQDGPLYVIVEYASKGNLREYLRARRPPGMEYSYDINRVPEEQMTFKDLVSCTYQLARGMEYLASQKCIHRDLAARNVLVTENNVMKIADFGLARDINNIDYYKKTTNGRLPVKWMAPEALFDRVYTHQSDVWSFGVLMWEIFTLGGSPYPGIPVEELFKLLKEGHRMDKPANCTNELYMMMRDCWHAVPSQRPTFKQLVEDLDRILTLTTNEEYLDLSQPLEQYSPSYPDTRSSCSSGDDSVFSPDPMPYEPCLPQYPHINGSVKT
- ASSAY OVERVIEW: FGF2-induced ERK1/2 phosphorylation in HEK293 cells, FGFR2 WT
- Assay type: cell-based
- MEASUREMENT CONDITIONS: stable HEK293 FGFR2^WT cells; FGF2 0.5 ng/ml 5 min; average±sem, three experiments; read-out: IC50 value, inhibition of FGF2 induced ERK1/2 phosphorylation
QUANTITY NAME: pIC50
Note on pIC50: it is the negative log10 of concentration, concentration in mol/L.

Please give the measured pIC50 for this compound: COc1c(C)c(C(=O)c2ccc(N)c(C(=O)[O-])c2)n2ccccc12.[Na+] [SSR]
7.55
